System: Streptococcus pneumoniae
Test: In vitro minimum inhibitory concentration against penicillin intermediate Streptococcus pneumoniae strains (number of strains = 3).
Type: functional
READOUT NAME: log10 MIC (log10 of the value in µg/mL)
Kindly note that the scale is log10 and the underlying MIC is in µg/mL.

N[C@@H](C(=O)N[C@@H]1C(=O)N2C(C(=O)O)=C(Sc3ncccn3)CC[C@H]12)c1ccccc1	-0.30

Here are 4 compounds. What values of log10 MIC were reported for them?
1. N=C(N)SCc1ccccc1SC1=C(C(=O)O)N2C(=O)[C@@H](NC(=O)[C@H](N)c3ccccc3)[C@H]2CC1
2. N[C@@H](C(=O)N[C@@H]1C(=O)N2C(C(=O)O)=C(Sc3cccs3)CC[C@H]12)c1ccccc1
3. CSC1=C(C(=O)O)N2C(=O)[C@@H](NC(=O)[C@H](N)c3ccccc3)[C@H]2CC1
4. N[C@@H](C(=O)N[C@@H]1C(=O)N2C(C(=O)O)=C(Sc3nccs3)CC[C@H]12)c1ccccc1

Reply:
[-0.60, 0.30, 0.90, 0.30]

Here are 2 compounds. What values of log10 MIC were reported for them?
1. N[C@@H](C(=O)N[C@@H]1C(=O)N2C(C(=O)O)=C(Sc3ccccc3Br)CC[C@H]12)c1ccccc1
2. C[n+]1ccc(SC2=C(C(=O)[O-])N3C(=O)[C@@H](NC(=O)[C@H](N)c4ccccc4)[C@H]3CC2)cc1

Reply:
[-0.60, 0.00]

Here are 5 compounds. What values of log10 MIC were reported for them?
1. N[C@@H](C(=O)N[C@@H]1C(=O)N2C(C(=O)O)=C(Sc3ccccn3)CC[C@H]12)c1ccccc1
2. N[C@@H](C(=O)N[C@@H]1C(=O)N2C(C(=O)O)=C(Cl)CC[C@H]12)c1ccccc1 [LORACARBEF ANHYDROUS]
3. N[C@@H](C(=O)N[C@@H]1C(=O)N2C(C(=O)O)=C(Sc3ccccc3)CC[C@H]12)c1ccccc1
4. Cn1cnnc1SC1=C(C(=O)O)N2C(=O)[C@@H](NC(=O)[C@H](N)c3ccccc3)[C@H]2CC1
5. CSc1nnc(SC2=C(C(=O)O)N3C(=O)[C@@H](NC(=O)[C@H](N)c4ccccc4)[C@H]3CC2)s1

Reply:
1. 0.00
2. 0.90
3. 0.00
4. 0.60
5. -1.22

Here are 6 compounds. What values of log10 MIC were reported for them?
1. N[C@@H](C(=O)N[C@@H]1C(=O)N2C(C(=O)O)=C(Sc3ccncc3)CC[C@H]12)c1ccccc1
2. N[C@@H](C(=O)N[C@@H]1C(=O)N2C(C(=O)O)=C(Sc3nc4ccccc4s3)CC[C@H]12)c1ccccc1
3. N[C@@H](C(=O)N[C@@H]1C(=O)N2C(C(=O)O)=C(Sc3ccccc3CO)CC[C@H]12)c1ccccc1
4. N[C@@H](C(=O)N[C@@H]1C(=O)N2C(C(=O)O)=C(Sc3nnc(SCC4CC4)s3)CC[C@H]12)c1ccccc1
5. CCSc1nnc(SC2=C(C(=O)O)N3C(=O)[C@@H](NC(=O)[C@H](N)c4ccccc4)[C@H]3CC2)s1
6. N[C@@H](C(=O)N[C@@H]1C(=O)N2C(C(=O)O)=C(Sc3cnns3)CC[C@H]12)c1ccccc1

Reply:
[-0.60, 0.60, 0.30, -1.22, -0.60, -0.60]

====

Test system: Streptococcus pneumoniae
Test: In vitro minimum inhibitory concentration against penicillin intermediate Streptococcus pneumoniae strains (number of strains = 3).
Format: functional
READOUT NAME: MIC (µg/mL)
Answers are plain numbers, in µg/mL.

Nc1nnc(SC2=C(C(=O)O)N3C(=O)[C@@H](NC(=O)[C@H](N)c4ccccc4)[C@H]3CC2)s1	0.5
Cn1ccnc1SC1=C(C(=O)O)N2C(=O)[C@@H](NC(=O)[C@H](N)c3ccccc3)[C@H]2CC1	8
Cc1nnc(SC2=C(C(=O)O)N3C(=O)[C@@H](NC(=O)[C@H](N)c4ccccc4)[C@H]3CC2)s1	1

Ask: Checklist item: MIC tested on Streptococcus pneumoniae, entry N[C@@H](C(=O)N[C@@H]1C(=O)N2C(C(=O)O)=C(Sc3nncs3)CC[C@H]12)c1ccccc1 , value?
Reply: 0.25
